# System: NCI-H460 lung
# EXPERIMENT: NCI tumour cell line growth inhibition, 48 h

{"COMPOUND": "COC1C(OC(=O)c2ccc(C)[nH]2)C(O)C(Oc2ccc3c(O)c(NC(=O)c4c[nH]c(C(=O)Nc5c(O)c6ccc(OC7OC(C)(C)C(OC)C(OC(=O)c8ccc(C)[nH]8)C7O)c(C)c6oc5=O)c4C)c(=O)oc3c2C)OC1(C)C (centres undefined)", "READING UNIT": "µM", "QUALIFIER SIGN": "=", "TGI": 6.62}
{"COMPOUND": "O=C(O)C[C@H](O)C[C@H](O)/C=C/c1c(C2CC2)nc2ccccc2c1-c1ccc(F)cc1", "READING UNIT": "µM", "QUALIFIER SIGN": ">", "TGI": 100}
{"COMPOUND": "C=CC(=O)N1C/C(=C\\c2ccc(Cl)c(Cl)c2)C(=O)/C(=C/c2ccc(Cl)c(Cl)c2)C1", "READING UNIT": "µM", "QUALIFIER SIGN": "=", "TGI": 0.298}
{"COMPOUND": "NNC(=O)Nc1nc2ccc(NN)cc2[nH]1", "READING UNIT": "µM", "QUALIFIER SIGN": ">", "TGI": 100}

###

# Tested on: SK-MEL-28 melanoma
# EXPERIMENT: NCI tumour cell line growth inhibition, 48 h

{"COMPOUND": "COc1ccc(C(=O)Cn2c(C(=O)c3ccccc3)nc3ccccc32)cc1", "TESTED TARGET": "SK-MEL-28 melanoma", "GI50": "3910 nM"}
{"COMPOUND": "NC(=N\\N=C/c1ccc(O)cc1)/C(N)=N\\N=C/c1ccc(O)cc1", "TESTED TARGET": "SK-MEL-28 melanoma", "GI50": "> 100000 nM"}
{"COMPOUND": "N#Cc1nc(-c2ccc(F)cc2)oc1S(=O)(=O)N1CCCCC1", "TESTED TARGET": "SK-MEL-28 melanoma", "GI50": "1750 nM"}
{"COMPOUND": "COc1cc2c(cc1OC)-c1ncc3c(OC)ccc(OC)c3c1C2", "TESTED TARGET": "SK-MEL-28 melanoma", "GI50": "> 100000 nM"}
{"COMPOUND": "COc1ccc2c(c1)nc(NNC(=O)c1cnccn1)c1cccn12", "TESTED TARGET": "SK-MEL-28 melanoma", "GI50": "444 nM"}
{"COMPOUND": "CC1=CC2C(C(O)CC3(C)C2CC(C)C32OCOC23COCO3)C2(C)C/C(=C/O)C(=O)C=C12 (stereo not given)", "TESTED TARGET": "SK-MEL-28 melanoma", "GI50": "1870 nM"}
{"COMPOUND": "OCCCCC#Cc1ccccc1C#Cc1ccc(O)cc1", "TESTED TARGET": "SK-MEL-28 melanoma", "GI50": "14200 nM"}
{"COMPOUND": "Cc1ccc(S(=O)(=O)Oc2ccc3c4c(c(=O)oc3c2)CCCCCC4)cc1", "TESTED TARGET": "SK-MEL-28 melanoma", "GI50": "> 100000 nM"}
{"COMPOUND": "Fc1ccc(-c2ncn(C3CCNCC3)c2-c2ccnc(Oc3ccc4c(c3)OCO4)n2)cc1", "TESTED TARGET": "SK-MEL-28 melanoma", "GI50": "8340 nM"}
{"COMPOUND": "Cc1ccc(/C=C/c2c(C(=O)/C=C/c3ccccc3)c(C)nc3ccccc23)cc1", "TESTED TARGET": "SK-MEL-28 melanoma", "GI50": "1770 nM"}
{"COMPOUND": "COC(=O)c1c2c(c(C)[n+]([O-])c1C)C(=O)C=C(NCc1ccccc1)C2=O", "TESTED TARGET": "SK-MEL-28 melanoma", "GI50": "1630 nM"}
{"COMPOUND": "CCCCCCCCCCCC1=NC(C)(C)CN1C(C)(C)CO", "TESTED TARGET": "SK-MEL-28 melanoma", "GI50": "1830 nM"}
{"COMPOUND": "CCCCNNC(=O)c1ccc(Br)cc1", "TESTED TARGET": "SK-MEL-28 melanoma", "GI50": "1550 nM"}
{"COMPOUND": "Cc1ccc2nc3ccccc3c(NCc3ccc(Cl)cc3)c2c1", "TESTED TARGET": "SK-MEL-28 melanoma", "GI50": "6420 nM"}
{"COMPOUND": "Cc1ccc(/C=C(\\C#N)c2cc3ccccc3n2C)cc1", "TESTED TARGET": "SK-MEL-28 melanoma", "GI50": "> 100000 nM"}
